- Tested on: EC-1, mouse virulent strain of Escherichia coli
- Format: cell-based
- TEST PARAMETERS: E. coli EC-1; overnight incubation, lower of duplicate values; trifluoroacetate salt (Example 1 and PMB sulfate)
Bridge positions count the residues as written; N and C are the ends. Square brackets hold non-standard residues; d marks the D form. Peptide text beside a SMILES is read from it. * marks the point of attachment. Benzoyl(3-Ph) = O=C(c1cccc(-c2ccccc2)c1)*; X14 = CC(C)c1cccc(C(=O)*)c1; Dab = NCC[C@H](N)C(=O)O; Dap = NC[C@H](N)C(=O)O
PROPERTY MEASURED: EC-1 MIC (µg/mL)

MOLECULE: CC(C)C[C@@H]1NC(=O)[C@@H](Cc2ccccc2)NC(=O)[C@H](CCN)NC(=O)[C@@H](NC(=O)[C@H](CN)NC(=O)[C@@H](NC(=O)[C@H](CCN)NC(=O)c2cccc(-c3ccccc3)c2)[C@@H](C)O)CCNC(=O)[C@H]([C@@H](C)O)NC(=O)[C@H](CCN)NC(=O)[C@H](CCN)NC1=O [Example 19] ({Benzoyl(3-Ph)}-[Dab]T[Dap][Dab][Dab][dF]L[Dab][Dab]T; lactam 4-C)
PROPERTY MEASURED: EC-1 MIC
VALUE QUALIFIER: =
ASSAY RESULT: 0.25
--
MOLECULE: CC(C)C[C@@H]1NC(=O)[C@@H](Cc2ccccc2)NC(=O)[C@H](CCN)NC(=O)[C@@H](NC(=O)[C@H](CN)NC(=O)[C@@H](NC(=O)[C@H](CCN)NC(=O)c2cccc(C(C)C)c2)[C@@H](C)O)CCNC(=O)[C@H]([C@@H](C)O)NC(=O)[C@H](CCN)NC(=O)[C@H](CCN)NC1=O [Example 25] (X14-[Dab]T[Dap][Dab][Dab][dF]L[Dab][Dab]T; lactam 4-C)
PROPERTY MEASURED: EC-1 MIC
VALUE QUALIFIER: =
ASSAY RESULT: 0.25
--
MOLECULE: CC(C)C[C@@H]1NC(=O)[C@@H](Cc2ccccc2)NC(=O)[C@H](CCN)NC(=O)[C@@H](NC(=O)[C@H](CCN)NC(=O)[C@@H](N)[C@@H](C)O)CCNC(=O)[C@H]([C@@H](C)O)NC(=O)[C@H](CCN)NC(=O)[C@H](CCN)NC1=O [Nona, polymyxin B nonapeptide, reference compound] (H-T[Dab][Dab][Dab][dF]L[Dab][Dab]T; lactam 3-C (inferred))
PROPERTY MEASURED: EC-1 MIC
VALUE QUALIFIER: >
ASSAY RESULT: 64

FYI, the data here is from patent US20120316105A1.
